The origin of these recorded values is the RepoRT retention time repository (doi:10.1016/j.jchromb.2020.122105).

- assay_protocol: RP, Waters CORTECS T3, 100 × 2.1 mm, 2.7 µm, 0.1 mL/min, estimated dead time 2.2 min; A: water + 0.1% formic acid, pH 3; B: methanol + 0.1% formic acid, pH 3; gradient (min/%B) 0/5 5/5 25/95 25.1/100 35/100 35.1/5 45/5
- test_conditions: stereoisomer not certain
metric_name: LC retention time (min)

Below, 3 compounds whose answers are already recorded.
- compound: "N[C@@H](Cc1ccc(O)c([N+](=O)[O-])c1)C(=O)O [3-NITRO-L-TYROSINE]"
  unit_spec: "min"
  LC retention time: 10.8
- compound: "O=CCc1c[nH]c2ccccc12 [INDOLE-3-ACETALDEHYDE]"
  unit_spec: "min"
  LC retention time: 13.8
- compound: "O=C(O)CCCCC1SCC2NC(=O)NC21 (stereo not given) [BIOTIN]"
  unit_spec: "min"
  LC retention time: 15.3

A. O=C(O)Cc1c[nH]c2ccc(O)cc12 [5-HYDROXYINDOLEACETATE]
B. CC(=O)OCC(=O)C1(O)CCC2C3CCC4=CC(=O)CCC4(C)C3C(O)CC21C (stereo not given) [CORTISOL 21-ACETATE]
Field: lower LC retention time | Options: A / B Which one? Tell me its label. A
(A: 13.4 min, B: 22.9 min)

====

- assay_protocol: HILIC, Merck SeQuant ZIC-HILIC, 150 × 2.1 mm, 5 µm, 0.75 mL/min, estimated dead time 0.44 min; A: water + 0.1% acetic acid + 10 mM ammonium acetate, pH 4; B: 5% water + 95% acetonitrile + 0.1% acetic acid + 10 mM ammonium acetate, pH 4; gradient (min/%B) 0/95 5/95 20/57 25/57 30/95 40/95
- test_conditions: stereoisomer not certain
metric_name: LC retention time (min)

- compound: "CC(O)(CC(=O)O)CC(=O)O [3-HYDROXY-3-METHYLGLUTARATE]"
  unit_spec: "min"
  LC retention time: 12.2
- compound: "CC(C)(CO)C(O)C(=O)NCCC(=O)O (stereo not given)"
  unit_spec: "min"
  LC retention time: 9.3
- compound: "O=C(O)CCCCCCCCCO [10-HYDROXYDECANOATE]"
  unit_spec: "min"
  LC retention time: 1.13

a. O=C(O)CCCCCCCC(=O)O
b. OCC(O)c1ccc(O)c(O)c1 (stereo not given) [3,4-DIHYDROXYPHENYL GLYCOL]
Two entries are listed, a and b . Which one carries the higher LC retention time? Write the label of whichever entry you select. a

====

- assay_protocol: RP, Waters CORTECS T3, 100 × 2.1 mm, 2.7 µm, 0.2 mL/min, estimated dead time 1.1 min; A: water + 0.1% formic acid, pH 3; B: methanol + 0.1% formic acid, pH 3; gradient (min/%B) 0/0 1/0 6/5 30/100 35/100 35.1/0 40/0
- test_conditions: stereoisomer not certain
Counter-ions that a name gives are not always drawn.
metric_name: LC retention time (min)

- compound: "CC(C)=CCNc1ncnc2nc[nH]c12"
  LC retention time (min): 15.1
- compound: "Nc1nc2c(ncn2C2OC(CO)C(O)C2O)c(=O)[nH]1 (stereo unspecified)"
  LC retention time (min): 7.02
- compound: "O=C(O)c1cc(=O)c2cccc(O)c2[nH]1"
  LC retention time (min): 12.1
- compound: "O=S(=O)(O)Oc1c[nH]c2ccccc12 [INDOXYL SULFATE]"
  LC retention time (min): 9.62
- compound: "Nc1ncnc2c1ncn2C1CC(O)C(COP(=O)(O)O)O1 (stereo unspecified)"
  LC retention time (min): 1.35

A. COc1cc(C=CC(=O)O)ccc1O [FERULATE]
B. CC(O)(CC(=O)O)C(=O)O (stereo unspecified) [CITRAMALATE]
Hi there, can you help? I need to know whether A or B has lower measured LC retention time. Mark your answer with the label of the selected entry. B

====

- assay_protocol: RP, Waters CORTECS T3, 100 × 2.1 mm, 2.7 µm, 0.2 mL/min, estimated dead time 1.1 min; A: water + 0.1% formic acid, pH 3; B: methanol + 0.1% formic acid, pH 3; gradient (min/%B) 0/5 5/5 25/95 25.1/100 35/100 35.1/5 45/5
- test_conditions: stereoisomer not certain
metric_name: LC retention time (min)

# example entries with known answers
- compound: "CCC(NC(=O)CCC(N)C(=O)O)C(=O)NCC(=O)O (centres undefined)"
  unit_spec: "min"
  LC retention time: 2.74
- compound: "Nc1ccn(C2CC(O)C(COP(=O)(O)O)O2)c(=O)n1 (centres undefined) [2'-DEOXYCYTIDINE 5'-MONOPHOSPHATE]"
  unit_spec: "min"
  LC retention time: 2.67

a. O=C(O)C1(O)CC(O)C(O)C(O)C1 (centres undefined) [QUINATE]
b. CC(C)(CO)C(O)C(=O)NCCC(=O)O (centres undefined)
Which of these two has the smaller recorded LC retention time: a or b ? Record your answer as the label of the chosen record. a
(a: 2.64 min, b: 13 min)

1. NC(=O)C1CCCN1C(=O)C(Cc1cnc[nH]1)NC(=O)C1CCC(=O)N1 (centres undefined)
2. O=c1[nH]cnc2c1ncn2C1OC(CO)C(O)C1O (centres undefined)
For the two items 1 and 2 , which reports the higher LC retention time value? # answer = label of selected item 2

a. NC(=O)CC[C@H](N)C(=O)O
b. CSCCC(NC(C)=O)C(=O)O (racemic)
Which shows the larger LC retention time value: a or b ? Answer by stating the label of the chosen item. b

====

- assay_protocol: RP, Waters CORTECS T3, 100 × 2.1 mm, 2.7 µm, 0.3 mL/min, estimated dead time 0.73 min; A: water + 0.1% formic acid, pH 3; B: methanol + 0.1% formic acid, pH 3; gradient (min/%B) 0/0 1/0 6/5 30/100 35/100 35.1/0 40/0
- test_conditions: stereoisomer not certain
metric_name: LC retention time (min)

- compound: "Nc1ccn(C2CC(O)C(COP(=O)(O)O)O2)c(=O)n1 (stereo not given) [2'-DEOXYCYTIDINE 5'-MONOPHOSPHATE]"
  LC retention time (min): 0.92
- compound: "O=c1[nH]c(=O)c2ncn(C3OC(COP(=O)(O)O)C(O)C3O)c2[nH]1 (stereo not given) [XANTHOSINE 5'-MONOPHOSPHATE]"
  LC retention time (min): 0.92
- compound: "CC(O)(CC(=O)O)C(=O)O (stereo not given) [CITRAMALATE]"
  LC retention time (min): 2.32
- compound: "O=C(O)c1ccc2ccccc2c1[O-] [1-HYDROXY-2-NAPHTHOATE]"
  LC retention time (min): 21.7
- compound: "CC(C)(CO)C(O)C(=O)NCCC(=O)O [D-PANTOTHENIC ACID]"
  LC retention time (min): 8.1
- compound: "N[C@@H](Cc1ccc(O)c([N+](=O)[O-])c1)C(=O)O [3-NITRO-L-TYROSINE]"
  LC retention time (min): 7.13

a. CSCCC(NC(C)=O)C(=O)O (racemic) [N-ACETYL-DL-METHIONINE]
b. Nc1ncnc2nc[nH]c12 [ADENINE]
Problem: Given the entries a and b , determine which has the lower reported LC retention time. Reply briefly: the label of your chosen item. b
(b: 0.9 min, a: 8.96 min)

====

- assay_protocol: RP, Waters CORTECS T3, 100 × 2.1 mm, 2.7 µm, 0.15 mL/min, estimated dead time 1.5 min; A: water + 0.1% formic acid, pH 3; B: methanol + 0.1% formic acid, pH 3; gradient (min/%B) 0/0 1/0 6/5 30/100 35/100 35.1/0 40/0
- test_conditions: stereoisomer not certain
metric_name: LC retention time (min)

- compound: "Cc1ncc(C[n+]2csc(CCOP(=O)(O)O)c2C)c(N)n1 [THIAMINE MONOPHOSPHATE]"
  unit_spec: "min"
  LC retention time: 1.78
- compound: "Cc1cc2nc3c(=O)[nH]c(=O)nc-3n(CC(O)C(O)C(O)CO)c2cc1C (stereo not given)"
  unit_spec: "min"
  LC retention time: 15.8
- compound: "O=C(O)Cc1c[nH]c2ccc(O)cc12 [5-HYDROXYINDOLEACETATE]"
  unit_spec: "min"
  LC retention time: 12.9
- compound: "OCCc1c[nH]c2ccccc12"
  unit_spec: "min"
  LC retention time: 17.7
- compound: "COc1cc(C=CC(=O)O)ccc1O [FERULATE]"
  unit_spec: "min"
  LC retention time: 16.9
- compound: "CC(=O)N[C@H](Cc1c[nH]c2ccccc12)C(=O)O"
  unit_spec: "min"
  LC retention time: 17
- compound: "CC(=O)NC(CCCCN)C(=O)O (stereo not given)"
  unit_spec: "min"
  LC retention time: 1.78

1. O=C(O)CCCCC1SCC2NC(=O)NC21 (stereo not given)
2. O=C(O)C=Cc1cnc[nH]1 [UROCANATE]
3. CC(=O)OCC(=O)C1(O)CCC2C3CCC4=CC(=O)CCC4(C)C3C(O)CC21C (stereo not given) [CORTISOL 21-ACETATE]
Rank entries according to their LC retention time, from the largest number down. Your task in answering is to list the labels in the requested order. 3, 1, 2
(3: 23.6 min, 1: 14.9 min, 2: 1.8 min)
